From: ChEMBL document CHEMBL3988442

# target.entity: Ubiquitin-activating enzyme e1, putative (Leishmania donovani (strain BPK282A1))
# Sequence (whole entry): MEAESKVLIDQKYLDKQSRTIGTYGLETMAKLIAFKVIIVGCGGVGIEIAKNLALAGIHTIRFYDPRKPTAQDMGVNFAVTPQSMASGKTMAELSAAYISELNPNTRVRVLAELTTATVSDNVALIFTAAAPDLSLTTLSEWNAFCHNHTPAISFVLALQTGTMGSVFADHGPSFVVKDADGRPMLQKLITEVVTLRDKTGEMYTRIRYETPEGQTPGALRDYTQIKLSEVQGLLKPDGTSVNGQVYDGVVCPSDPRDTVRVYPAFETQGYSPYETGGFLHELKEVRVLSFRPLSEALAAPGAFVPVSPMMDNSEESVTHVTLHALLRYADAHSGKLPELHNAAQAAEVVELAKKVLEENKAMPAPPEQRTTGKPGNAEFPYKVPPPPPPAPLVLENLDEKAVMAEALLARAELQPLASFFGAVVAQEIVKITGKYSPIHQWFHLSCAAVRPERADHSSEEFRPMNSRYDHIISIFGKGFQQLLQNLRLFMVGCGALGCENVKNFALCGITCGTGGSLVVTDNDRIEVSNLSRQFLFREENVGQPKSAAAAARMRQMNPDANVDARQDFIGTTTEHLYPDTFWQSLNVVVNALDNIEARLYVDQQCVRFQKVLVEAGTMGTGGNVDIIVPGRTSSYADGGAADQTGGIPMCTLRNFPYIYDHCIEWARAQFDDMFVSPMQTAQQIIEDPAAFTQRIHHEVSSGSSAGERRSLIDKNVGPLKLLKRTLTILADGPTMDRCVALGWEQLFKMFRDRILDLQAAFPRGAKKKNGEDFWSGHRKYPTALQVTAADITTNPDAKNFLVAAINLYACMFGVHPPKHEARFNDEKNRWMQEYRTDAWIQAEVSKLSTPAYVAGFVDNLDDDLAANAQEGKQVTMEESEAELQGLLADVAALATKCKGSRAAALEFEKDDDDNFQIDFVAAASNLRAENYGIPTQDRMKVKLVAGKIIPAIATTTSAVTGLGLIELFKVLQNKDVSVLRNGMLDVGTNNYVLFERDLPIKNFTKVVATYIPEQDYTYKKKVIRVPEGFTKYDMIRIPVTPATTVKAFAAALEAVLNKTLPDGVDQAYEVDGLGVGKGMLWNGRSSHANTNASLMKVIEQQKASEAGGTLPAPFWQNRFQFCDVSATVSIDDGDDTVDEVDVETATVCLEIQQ
# procedure.summary: Leishmania donovani Ubiquitin Activating Enzyme (LdE1)
# Format: functional
# Design: scale not given: direction of the effect not stated beside the values
# test.settings: 30 µM
Measured potencies and affinities stand elsewhere.
measured.parameter: Percent Effect (%)
Express the result in % but write the number alone.

In the examples that follow, each entry is paired with its recorded Percent Effect.
q: Hi! What's the reported Percent Effect for "COc1cc2ncn(CC(=O)NCCCN(C)C)c(=O)c2cc1OC" on Ubiquitin-activating enzyme e1, putative (Leishmania donovani (strain BPK282A1))?
a: 1.33

q: Moving on to the next molecule: "Cc1cc(-c2cnc(NCc3cccnc3)nc2C(C)(C)C)on1"
a: 0

q: Try this molecule too: "NC(=O)C1CCN(CCc2ccc(NC(=O)C3CCC3)cc2)CC1"
a: 8.11

q: Likewise for Cc1nc2ccccc2nc1CN1CCCC1Cn1cncn1 (stereo not given) ?
a: 20.8

q: Here is the next molecule: CC(=O)N(C)c1nc(CN2CCOC(Cn3cc(C)cn3)C2)cs1 (stereo not given)
a: 28.6

---
q: // lookup Percent Effect | system=Ubiquitin-activating enzyme e1, putative (Leishmania donovani (strain BPK282A1)) | key= c1cnnc(N2CCCC2CNCc2cnc(N3CCCC3)nc2)c1 (stereo not given)
a: -1.27

q: Subsequent entry: "O=C(NCCNc1cnccn1)C1CCN(C(=O)N2CCCC2)CC1"
a: 19
